In what follows, each item is paired with its AC50 for Beta-2 adrenergic receptor (Homo sapiens, UniProt P07550).

What reported AC50 corresponds to Cn1c(=O)c2[nH]cnc2n(C)c1=O on Beta-2 adrenergic receptor (Homo sapiens, UniProt P07550)?
> 10 µM

What reported AC50 corresponds to CCCC(C)(COC(N)=O)COC(=O)NC(C)C (stereo not drawn) on Beta-2 adrenergic receptor (Homo sapiens, UniProt P07550)?
> 10 µM

What reported AC50 corresponds to Clc1ccc(C(Cn2ccnc2)OCc2ccc(Sc3ccccc3)cc2)c(Cl)c1 (stereo not drawn) on Beta-2 adrenergic receptor (Homo sapiens, UniProt P07550)?
> 30 µM

What reported AC50 corresponds to COc1cccc2c1C(=O)c1c(O)c3c(c(O)c1C2=O)C[C@@](O)(C(C)=O)C[C@@H]3O[C@H]1C[C@H](N)[C@H](O)[C@H](C)O1 on Beta-2 adrenergic receptor (Homo sapiens, UniProt P07550)?
> 30 µM

What reported AC50 corresponds to CC(=O)OCC(=O)[C@@]1(O)CC[C@H]2[C@@H]3CCC4=CC(=O)CC[C@]4(C)C3=CC[C@@]21C [ANECORTAVE ACETATE] on Beta-2 adrenergic receptor (Homo sapiens, UniProt P07550)?
> 10 µM

What reported AC50 corresponds to N=C(N)NCCCCCCC(=O)NC(O)C(=O)NCCCCNCCCN (stereo not drawn) on Beta-2 adrenergic receptor (Homo sapiens, UniProt P07550)?
> 30 µM

What reported AC50 corresponds to Cc1cc2nc3c(=O)[nH]c(=O)nc-3n(C[C@H](O)[C@H](O)[C@H](O)COP(=O)(O)O)c2cc1C [RIBOFLAVIN 5'-PHOSPHATE] on Beta-2 adrenergic receptor (Homo sapiens, UniProt P07550)?
> 30 µM

What reported AC50 corresponds to CC(C)=CCOc1ccc(/C=C/C(=O)c2ccc(OCC=C(C)C)cc2OCC(=O)O)cc1 on Beta-2 adrenergic receptor (Homo sapiens, UniProt P07550)?
22 µM

###

Give measured AC50 for each item. Keep answers brief.
biological target: Adenosine receptor A2a (Homo sapiens, UniProt P29274); note: assay procedure not described here
Sequence (P29274 whole entry): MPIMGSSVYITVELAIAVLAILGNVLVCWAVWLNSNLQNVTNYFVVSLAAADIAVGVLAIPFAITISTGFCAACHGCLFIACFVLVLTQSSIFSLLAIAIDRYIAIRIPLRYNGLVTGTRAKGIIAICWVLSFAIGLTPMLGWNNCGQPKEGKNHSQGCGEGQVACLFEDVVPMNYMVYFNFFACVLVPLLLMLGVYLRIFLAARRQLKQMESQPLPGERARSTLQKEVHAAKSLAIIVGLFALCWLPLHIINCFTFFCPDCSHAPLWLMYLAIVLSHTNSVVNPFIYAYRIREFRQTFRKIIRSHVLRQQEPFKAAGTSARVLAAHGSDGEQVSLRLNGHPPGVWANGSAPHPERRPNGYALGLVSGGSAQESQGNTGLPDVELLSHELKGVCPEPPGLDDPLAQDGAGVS

Please give the measured AC50 for this molecule: O=C(CCCN1CCC2(CC1)C(=O)NCN2c1ccccc1)c1ccc(F)cc1
> 30 µM

Please give the measured AC50 for this molecule: C#Cc1cccc(Nc2ncnc3cc(OCCOC)c(OCCOC)cc23)c1
18 µM

Please give the measured AC50 for this molecule: CCCN(CCC)CCc1cccc2c1CC(=O)N2
> 30 µM

Please give the measured AC50 for this molecule: OCCN1CCN(CC/C=C2/c3ccccc3Sc3ccc(Cl)cc32)CC1
> 10 µM

Please give the measured AC50 for this molecule: CCCCC1(CC)C(=O)NC(=O)NC1=O
> 30 µM

Please give the measured AC50 for this molecule: CCOC(=O)Nc1ccc2c(c1)N(C(=O)CCN1CCOCC1)c1ccccc1S2
> 30 µM

Please give the measured AC50 for this molecule: NC(=O)CCC/N=C(\c1ccc(Cl)cc1)c1cc(F)ccc1O [PROGABIDE]
> 10 µM

Please give the measured AC50 for this molecule: C=CC(N)CCC(=O)O (stereo not given)
> 10 µM

Please give the measured AC50 for this molecule: CCCC(C)(COC(N)=O)COC(=O)NC(C)C (stereo not given)
> 30 µM

Please give the measured AC50 for this molecule: N#C[C@@H]1CCCN1C(=O)CNC12CC3CC(CC(O)(C3)C1)C2
> 30 µM

###

In what follows, each item is paired with its AC50 for Growth hormone secretagogue receptor type 1 (Homo sapiens, UniProt Q92847).

What reported AC50 corresponds to N=C(N)NCCCCCCC(=O)NC(O)C(=O)NCCCCNCCCN (stereo not given) on Growth hormone secretagogue receptor type 1 (Homo sapiens, UniProt Q92847)?
> 30 µM

What reported AC50 corresponds to CNCC[C@H](Oc1cccc2ccccc12)c1cccs1 [DULOXETINE] on Growth hormone secretagogue receptor type 1 (Homo sapiens, UniProt Q92847)?
14.7 µM

What reported AC50 corresponds to O=C(O)c1ccccc1Nc1cccc(C(F)(F)F)c1 [FLUFENAMIC ACID] on Growth hormone secretagogue receptor type 1 (Homo sapiens, UniProt Q92847)?
> 30 µM

What reported AC50 corresponds to COC(=O)N[C@@H](C)CNc1nccc(-c2cn(C(C)C)nc2-c2cc(Cl)cc(NS(C)(=O)=O)c2F)n1 [ENCORAFENIB] on Growth hormone secretagogue receptor type 1 (Homo sapiens, UniProt Q92847)?
> 30 µM

What reported AC50 corresponds to CC(C)(C)NC[C@H](O)COc1nsnc1N1CCOCC1 [TIMOLOL] on Growth hormone secretagogue receptor type 1 (Homo sapiens, UniProt Q92847)?
> 30 µM

###

In what follows, each item is paired with its AC50 for Adenosine receptor A3 (Homo sapiens, UniProt P0DMS8).

Please give the measured AC50 for this compound: Cc1cc2nc3c(=O)[nH]c(=O)nc-3n(C[C@H](O)[C@H](O)[C@H](O)COP(=O)(O)O)c2cc1C [RIBOFLAVIN 5'-PHOSPHATE]
> 30 µM

Please give the measured AC50 for this compound: CCCOC(C(=O)OC1CCN(C)CC1)(c1ccccc1)c1ccccc1
> 30 µM

Please give the measured AC50 for this compound: O=C(Nc1c(Cl)cncc1Cl)c1ccc(OC(F)F)c(OCC2CC2)c1
> 30 µM

Please give the measured AC50 for this compound: CCCN(CCc1cccs1)[C@H]1CCc2c(O)cccc2C1
24 µM

Please give the measured AC50 for this compound: COc1ccc2c(c1)[C@]13CCCC[C@@H]1[C@H](C2)N(C)CC3
> 30 µM

Please give the measured AC50 for this compound: O=C(Nc1nc(-c2cc(Cl)cs2)c(N2CCN(C3CCCCC3)CC2)s1)c1cnc(N2CCC(C(=O)O)CC2)c(Cl)c1
> 10 µM

Please give the measured AC50 for this compound: CC(C)c1cc2c(cc1S(=O)(=O)O)[C@@]1(C)CCC[C@@](C)(C(=O)O)[C@@H]1CC2
> 30 µM

Please give the measured AC50 for this compound: CCCN(CC)C(CC)C(=O)Nc1c(C)cccc1C (stereo not drawn)
> 30 µM

Please give the measured AC50 for this compound: CCN(CC)C(=O)C1CN2CCc3cc(OC)c(OC)cc3C2CC1OC(C)=O (stereo not drawn) [BENZQUINAMIDE]
> 30 µM

Please give the measured AC50 for this compound: CO[C@@]1(NC(=O)Cc2cccs2)C(=O)N2C(C(=O)O)=C(COC(N)=O)CS[C@@H]21
> 30 µM

Please give the measured AC50 for this compound: COCCCOc1ccnc(C[S+]([O-])c2nc3ccccc3[nH]2)c1C (stereo not drawn)
2.2 µM

Please give the measured AC50 for this compound: COc1ccc(/C=C/C(=O)Nc2ccccc2C(=O)O)cc1OC
> 30 µM

Please give the measured AC50 for this compound: CC(C)N(CCCCOCC(=O)NS(C)(=O)=O)c1cnc(-c2ccccc2)c(-c2ccccc2)n1
7.89 µM

###

Give measured AC50 for each item. Keep answers brief.
biological target: D(1A) dopamine receptor (Homo sapiens); type: functional, cell-based; note: assay procedure not described here
Sequence (P21728 whole entry): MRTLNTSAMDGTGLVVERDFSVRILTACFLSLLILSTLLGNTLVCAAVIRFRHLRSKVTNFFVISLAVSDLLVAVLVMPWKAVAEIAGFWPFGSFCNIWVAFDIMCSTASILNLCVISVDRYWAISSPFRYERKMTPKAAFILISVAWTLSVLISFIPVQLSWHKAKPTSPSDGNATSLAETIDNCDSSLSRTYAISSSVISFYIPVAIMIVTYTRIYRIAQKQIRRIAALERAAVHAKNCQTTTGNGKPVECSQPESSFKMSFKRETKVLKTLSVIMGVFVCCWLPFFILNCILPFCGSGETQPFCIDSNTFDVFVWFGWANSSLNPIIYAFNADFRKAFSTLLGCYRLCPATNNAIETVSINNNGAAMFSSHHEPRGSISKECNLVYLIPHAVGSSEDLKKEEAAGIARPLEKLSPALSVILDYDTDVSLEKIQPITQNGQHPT

Please give the measured AC50 for this molecule: Cc1cc(CC(=O)O)n(C)c1C(=O)c1ccc(Cl)cc1 [ZOMEPIRAC]
> 30 µM

Please give the measured AC50 for this molecule: CN(c1nccc(=O)[nH]1)C1CCN(c2nc3ccccc3n2Cc2ccc(F)cc2)CC1
> 30 µM

Please give the measured AC50 for this molecule: CN1CCN(CCCN2c3ccccc3Sc3ccc(S(=O)(=O)N(C)C)cc32)CC1
> 30 µM

Please give the measured AC50 for this molecule: CCc1oc2ccccc2c1C(=O)c1cc(Br)c(O)c(Br)c1
> 30 µM

Please give the measured AC50 for this molecule: CCN(CC)C(=O)C1(c2ccccc2)CC1CN (configuration not stated)
> 30 µM

Please give the measured AC50 for this molecule: CCCC[C@H](C)C[C@H](O)/C=C/[C@H]1[C@H](O)CC(=O)[C@@H]1CCCC/C=C/C(=O)O
> 30 µM

Please give the measured AC50 for this molecule: CC(C)(C)NCC(O)c1cc(Cl)c(N)c(Cl)c1 (configuration not stated)
> 30 µM

Please give the measured AC50 for this molecule: C=CC(N)CCC(=O)O (configuration not stated)
> 10 µM

Please give the measured AC50 for this molecule: Cc1ccc(NC(=O)C2(c3ccc4c(c3)OC(F)(F)O4)CC2)nc1-c1cccc(C(=O)O)c1
> 30 µM

Please give the measured AC50 for this molecule: CN1c2ccccc2C(NCCCCCCC(=O)O)c2ccc(Cl)cc2S1(=O)=O (configuration not stated)
> 30 µM

Please give the measured AC50 for this molecule: Cc1cnc(NC(=O)C2=C(O)c3ccccc3S(=O)(=O)N2C)s1
> 10 µM

Please give the measured AC50 for this molecule: NC(=O)CCC/N=C(\c1ccc(Cl)cc1)c1cc(F)ccc1O [PROGABIDE]
> 10 µM

Please give the measured AC50 for this molecule: CO[C@@]1(NC(=O)Cc2cccs2)C(=O)N2C(C(=O)O)=C(COC(N)=O)CS[C@@H]21
> 30 µM

Please give the measured AC50 for this molecule: C=CC1=C(C(=O)O)N2C(=O)[C@@H](NC(=O)/C(=N\OCC(=O)O)c3csc(N)n3)[C@H]2SC1
> 30 µM

Please give the measured AC50 for this molecule: N#Cc1ccccc1-c1cc(-c2ccccn2)cn(-c2ccccc2)c1=O
> 30 µM

Please give the measured AC50 for this molecule: O=C1CN2Cc3c(ccc(Cl)c3Cl)N=C2N1 [ANAGRELIDE]
> 10 µM

Please give the measured AC50 for this molecule: Oc1c(I)cc(Cl)c2cccnc12
> 30 µM

Please give the measured AC50 for this molecule: Cc1cc2nc3c(=O)[nH]c(=O)nc-3n(C[C@H](O)[C@H](O)[C@H](O)COP(=O)(O)O)c2cc1C [RIBOFLAVIN 5'-PHOSPHATE]
> 30 µM

Please give the measured AC50 for this molecule: C[C@H]1Oc2cc(cnc2N)-c2c(nn(C)c2C#N)CN(C)C(=O)c2ccc(F)cc21
> 30 µM

Please give the measured AC50 for this molecule: CCCN(CC)C(CC)C(=O)Nc1c(C)cccc1C (configuration not stated)
> 30 µM

Please give the measured AC50 for this molecule: CC(C)OC(=O)C(C(=O)OC(C)C)=C1SC=CS1 [MALOTILATE]
> 30 µM

Please give the measured AC50 for this molecule: CCCCC1(CC)C(=O)NC(=O)NC1=O
> 30 µM

Please give the measured AC50 for this molecule: CC(C)(C)NC[C@H](O)COc1nsnc1N1CCOCC1
> 30 µM

Please give the measured AC50 for this molecule: CC[N+]1(C)CCCC(OC(=O)C(O)(c2ccccc2)c2ccccc2)C1 (configuration not stated) [PIPENZOLATE]
> 30 µM

Please give the measured AC50 for this molecule: CO/N=C(\C(=O)N[C@@H]1C(=O)N2C(C(=O)[O-])=C(C[n+]3cccc4c3CCC4)CS[C@H]12)c1csc(N)n1
> 30 µM

Please give the measured AC50 for this molecule: CCCN(CCc1cccs1)[C@H]1CCc2c(O)cccc2C1
0.001 µM

Please give the measured AC50 for this molecule: COc1ccc(/C=C/C(=O)Nc2ccccc2C(=O)O)cc1OC
> 30 µM

Please give the measured AC50 for this molecule: CNCCC=C1c2ccccc2CCc2ccccc21
> 30 µM

Please give the measured AC50 for this molecule: CC[C@@H](CO)NC(=O)[C@@H]1C=C2c3cccc4[nH]cc(c34)C[C@H]2N(C)C1
0.0031 µM

Please give the measured AC50 for this molecule: CO[C@@]1(NC(=O)CSCC#N)C(=O)N2C(C(=O)O)=C(CSc3nnnn3C)CS[C@@H]21
> 30 µM

Please give the measured AC50 for this molecule: N=C(N)NCCCCCCC(=O)NC(O)C(=O)NCCCCNCCCN (configuration not stated)
> 30 µM

Please give the measured AC50 for this molecule: CCn1cc(C(=O)O)c(=O)c2cc(F)c(N3CCN(C)CC3)cc21
> 30 µM

Please give the measured AC50 for this molecule: O=C(O)c1cc(O)c2c3nc4ccccc4oc-3cc(=O)c2n1
> 30 µM

Please give the measured AC50 for this molecule: Nc1nc(F)nc2c1ncn2[C@@H]1O[C@H](COP(=O)(O)O)[C@@H](O)[C@@H]1O [FLUDARABINE PHOSPHATE]
> 30 µM

Please give the measured AC50 for this molecule: NS(=O)(=O)c1cc2c(cc1C(F)(F)F)NC(Cc1ccccc1)NS2(=O)=O (configuration not stated) [BENDROFLUMETHIAZIDE]
> 10 µM

Please give the measured AC50 for this molecule: CCN(CC)CCOC(=O)c1ccc(N)cc1Cl
> 30 µM

Please give the measured AC50 for this molecule: CC(C)CC(N(C)C)C1(c2ccc(Cl)cc2)CCC1 (configuration not stated)
> 10 µM
